Task for the reader: assign each of the following variants its reported protein stability index.
B1: KCNK9 (parent)
chain: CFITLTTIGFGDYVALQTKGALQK

Variants of: B1
TEST_SUMMARY: protein stability index of a GFP-peptide fusion (GPS, HEK-293T) (PSI 1-6); higher = more stable;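 further: lentivirally expressed fusions sorted by FACS into six bins by GFP to DsRed ratio, PSI derived from sequencing read proportions per bin multiplied by bin number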
APPLIED_CONDITIONS: c terminus: a fixed tail appended

// for each variant in input: emit protein stability index
1. G20F
2. L16D
3. L22C
4. K24I
5. F2T
6. L5T
7. Y13Q
8. I3W

Found:
1. 3.39
2. 2.23
3. 2.29
4. 2.09
5. 2.04
6. 1.57
7. 2.05
8. 2.2

// for each variant in input: emit protein stability index
1. C1G
2. I3T
3. A15T
4. Q17M
5. G9E
6. T4P

Found:
1.26
1.87
3.18
2.23
1.58
2.13

// for each variant in input: emit protein stability index
1. D12I
2. F2E
3. F2R
4. K19E
5. T6I

Found:
3.71
1.02
2.18
2.46
2.13
